Assay: Cell Viability - SK-N-SH (AID 435);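 further: potency means the concentration at half of the fitted maximal effect; compound exposure lasted 40 h at 37 °C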
Details: SK-N-SH neuroblastoma cell viability qHTS
Inconclusive results are not listed. Calls of active or inactive are those of the source. The call rests on the fitted dose curve.
Bench note: report the call from Y = active, N = inactive

Observe how each entry below is paired with its result.
C[C@@H]1CC[C@@]2(OC1)O[C@H]1[C@@H](O)[C@H]3[C@@H]4CC[C@H]5C[C@@H](O[C@@H]6O[C@H](CO)[C@H](O[C@@H]7O[C@H](CO)[C@@H](O)[C@H](O[C@@H]8OC[C@@H](O)[C@H](O)[C@H]8O)[C@H]7O[C@@H]7O[C@H](CO)[C@@H](O)[C@H](O[C@@H]8O[C@H](CO)[C@@H](O)[C@H](O)[C@H]8O)[C@H]7O)[C@H](O)[C@H]6O)[C@H](O)C[C@]5(C)[C@H]4CC[C@]3(C)[C@H]1[C@@H]2C Y
[CH3][Hg][Cl] Y
O=[N+]([O-])c1cc(C(F)(F)F)cc([N+](=O)[O-])c1Cl N
CCCCCCCCn1sccc1=O Y
OC(c1ccc(Cl)cc1)(c1ccc(Cl)cc1)C(Cl)(Cl)Cl N

Ask | Short answer needed: outcome of this test for Cc1ccc2ccccc2c1C ?
Reply | N

---

Target: Bile acid receptor (Homo sapiens) (UniProt Q96RI1)
Sequence (Q96RI1 whole entry, looked up): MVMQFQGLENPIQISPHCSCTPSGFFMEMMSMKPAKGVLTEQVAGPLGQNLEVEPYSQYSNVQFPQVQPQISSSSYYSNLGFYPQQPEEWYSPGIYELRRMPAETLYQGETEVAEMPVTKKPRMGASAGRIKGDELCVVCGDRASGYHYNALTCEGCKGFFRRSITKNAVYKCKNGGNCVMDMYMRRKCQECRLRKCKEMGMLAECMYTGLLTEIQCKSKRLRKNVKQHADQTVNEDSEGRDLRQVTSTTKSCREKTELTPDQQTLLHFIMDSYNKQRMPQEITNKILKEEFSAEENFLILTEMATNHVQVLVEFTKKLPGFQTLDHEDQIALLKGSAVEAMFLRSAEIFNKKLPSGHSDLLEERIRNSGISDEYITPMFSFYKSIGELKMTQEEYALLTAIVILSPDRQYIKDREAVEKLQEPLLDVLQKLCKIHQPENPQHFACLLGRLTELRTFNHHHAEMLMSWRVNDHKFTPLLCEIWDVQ
Experiment: qHTS assay for small molecule agonists of farnesoid X receptor signaling (AID 588527);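 further: 0% = vehicle basal and 100% = reference agonist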
Settings: HEK293T FXR-UAS-bla, beta-lactamase ratio, 16 h; active compounds read high
Records with an inconclusive call do not appear.
result.type: activation (%)
The reply should contain only the number, in %.

compound	target.desc	activation / %
Cc1nc(N(C)C)nc(OC(=O)N(C)C)c1C	Bile acid receptor (Homo sapiens) (UniProt Q96RI1)	2.16
O=C(O)CCSSCCC(=O)O	Bile acid receptor (Homo sapiens) (UniProt Q96RI1)	-1.56
S=C1NC=NC2N=CNC12 (stereo not drawn)	Bile acid receptor (Homo sapiens) (UniProt Q96RI1)	-5.16

Ask | Recorded activation of O=S(=O)(O)c1ccc(N=Nc2c(O)ccc3cc(S(=O)(=O)O)ccc23)cc1 , please.
Reply | -1.3

Ask | Try this compound too: CCNc1ccccc1
Reply | -3.11

Ask | Try this compound too: COC(=O)c1ccccc1CS(=O)(=O)NC(=O)Nc1nc(OC)cc(OC)n1
Reply | -0.439

Ask | Try this compound too: Cc1cccc2sc3nncn3c12
Reply | -0.105

Ask | Try this compound too: CCC[CH2][Sn]([CH2]CCC)([O]C(C)=O)[O]C(C)=O
Reply | -0.854

Ask | Try this compound too: CCCCCCCCCCCCCCN
Reply | 2.17

Ask | Try this compound too: Oc1cccc(Nc2ccccc2)c1
Reply | 0.64

Ask | Try this compound too: O=C1c2ccccc2C(=O)C1(O)O
Reply | 2.64

Ask | Try this compound too: CC(C)(C)c1ccc(CSc2cnn(C(C)(C)C)c(=O)c2Cl)cc1
Reply | 6.79

---

Assay: AP1 Signaling Pathway (AID 357);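 further: ME-180 reporter cells stimulated with EGF at its EC50 level; on the % scale 0 is the no-effect control and ±100 the full control effect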
Details: ME-180 (cervical carcinoma) AP-1-bla reporter, EGF-induced, beta-lactamase ratio, 5 h; at 17.2 µM (top of the series) unless noted
Records with an inconclusive call do not appear. Active and inactive are the calls of the source. The call rests on the fitted dose curve; in most records, active means well fitted curve in either direction with a large enough effect (not every such curve was filed as active); inconclusive means small, poorly fitted or top-dose-only effect, or another doubt; inactive means flat fitted curve, though single readings scatter.
Here, each record is paired with measured activity change, negative = inhibition data.

Ask | Recorded activity change, negative = inhibition of CCOC(=O)c1cc(C)n(CCc2cnc[nH]2)c1C , please.
Reply | 3.65% (inactive)

Ask | Try this molecule too: O=C1NCCN2CCCC12 (stereo unspecified)
Reply | 12% (inactive)

---

Target: Glucocorticoid receptor (Homo sapiens)
Assay: GR-GFP Redistribution (AID 450); further: potency means the concentration at half of the fitted maximal effect
Conditions: U2OS GR-GFP nuclear translocation, laser cytometry, 2 h
The source made the active and inactive calls.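 Rule for the calls: active = compounds whose dose series gives a full or clear partial fitted curve of increased nuclear translocation; inconclusive = weak partial curve or effect only at the top dose; inactive = no dose-dependent translocation response.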
Here, each record is paired with measured Potency data.

// known answers, use as guide
compound	target.desc	value.observed
CC(C)[C@H]1C(=O)N2CCC[C@@H]2[C@]2(O)O[C@@](NC(=O)[C@H]3C=C4c5cccc6[nH]cc(c56)C[C@H]4N(C)C3)(C(C)C)C(=O)N12	Glucocorticoid receptor (Homo sapiens)	> 46 µM (inactive)
O=c1[nH]c(=O)n(Cc2ccco2)c(O)c1C=NCCCn1ccnc1	Glucocorticoid receptor (Homo sapiens)	> 20.6 µM (inactive)
O=c1[nH]c(=O)n(CCc2ccccc2)c(O)c1C=NCCN1CCNCC1	Glucocorticoid receptor (Homo sapiens)	> 20.6 µM (inactive)
CCCCOCCCn1c(N)c(C(=O)OC(C)COC)c2nc3ccccc3nc21 (centres undefined)	Glucocorticoid receptor (Homo sapiens)	> 20.6 µM (inactive)
c1ccc(Cn2ccnc2)cc1	Glucocorticoid receptor (Homo sapiens)	> 20.6 µM (inactive)
CCCCCCn1c(O)c(C(C)=NC)c(=O)[nH]c1=O	Glucocorticoid receptor (Homo sapiens)	> 20.6 µM (inactive)
Cn1c(O)c(C=NC2CCN(Cc3ccccc3)CC2)c(=O)n(C)c1=O	Glucocorticoid receptor (Homo sapiens)	> 20.6 µM (inactive)
CC(C)[C@]1(NC(=O)[C@H]2C=C3c4cccc5[nH]cc(c45)C[C@H]3N(C)C2)O[C@@]2(O)[C@H]3CCCN3C(=O)[C@H](Cc3ccccc3)N2C1=O	Glucocorticoid receptor (Homo sapiens)	> 46 µM (inactive)

Kindly review the next compound as well.
Ask | Recorded Potency of CCCCc1nc(N2CCNCC2)c(C#N)c2c1CSC(C)(C)C2 , please.
Reply | > 20.6 µM (inactive)

---

Experiment: Cell Viability - LYMP1-003 - Assay at 24 hr (AID 963)
Conditions: LYMP1-003 lymphoblastoid cell viability; series mostly up to 92.2 µM
The source made the active and inactive calls. Calls come from the whole dose curve; as a rule, active = well fitted cell-killing curve with a large enough effect; inconclusive = small, poorly fitted or top-dose-only effect; inactive = flat fitted curve, though single readings scatter.
Bench note: report the call from active, inactive

Observe how each entry below is paired with its result.
OC(c1ccc(Cl)cc1)(c1ccc(Cl)cc1)C(Cl)(Cl)Cl inactive
N#CSCSC#N active
C[C@@H]1CC[C@@]2(OC1)O[C@H]1[C@@H](O)[C@H]3[C@@H]4CC[C@H]5C[C@@H](O[C@@H]6O[C@H](CO)[C@H](O[C@@H]7O[C@H](CO)[C@@H](O)[C@H](O[C@@H]8OC[C@@H](O)[C@H](O)[C@H]8O)[C@H]7O[C@@H]7O[C@H](CO)[C@@H](O)[C@H](O[C@@H]8O[C@H](CO)[C@@H](O)[C@H](O)[C@H]8O)[C@H]7O)[C@H](O)[C@H]6O)[C@H](O)C[C@]5(C)[C@H]4CC[C@]3(C)[C@H]1[C@@H]2C active
O=[N+]([O-])c1cc(C(F)(F)F)cc([N+](=O)[O-])c1Cl inactive
C#CCO inactive
CC/C(=C(\c1ccccc1)c1ccc(OCCN(C)C)cc1)c1ccc(O)cc1 active

Ask | Short answer needed: outcome of this test for CN(C)c1ccc(N=O)cc1 ?
Reply | active

Ask | Try this compound too: Oc1c(Br)c(Br)c(Br)c(Br)c1Br
Reply | inactive

---

Test: Cell Viability - LYMP2-012 (AID 982);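 further: cellular ATP by luciferase luminescence where a drop means cytotoxicity; cells exposed to compound for one day before reading; nearly all actives have a fitted effect of over 55% in size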
Details: LYMP2-012 lymphoblastoid cell viability qHTS; series mostly up to 92.2 µM
Records with an inconclusive call do not appear. Active and inactive are the calls of the source. Calls follow the shape of the dose curve; as a rule, active = well fitted cell-killing curve with a large enough effect; inconclusive = small, poorly fitted or top-dose-only effect; inactive = flat fitted curve, though single readings scatter.
Bench note: report the call from yes for active, no for inactive

Observe how each entry below is paired with its result.
compound	class.assignment
O=[N+]([O-])c1cc(C(F)(F)F)cc([N+](=O)[O-])c1Cl	yes
N#CSCSC#N	yes
O=[N+]([O-])C(Br)Br	yes
ClC1=C(Cl)C(Cl)(Cl)C(Cl)=C1Cl	yes
CCCCCCCCn1sccc1=O	yes

Ask | Short answer needed: outcome of this test for C#CCO ?
Reply | no

Ask | Try this compound too: O=C1C2(Cl)C3(Cl)C4(Cl)C(Cl)(Cl)C5(Cl)C3(Cl)C1(Cl)C5(Cl)C24Cl (stereo not given)
Reply | no

Ask | Try this compound too: Clc1ccc(C(c2ccc(Cl)cc2)C(Cl)Cl)cc1
Reply | no

Ask | Try this compound too: O=Nc1ccc(Nc2ccccc2)cc1
Reply | yes

Ask | Try this compound too: [CH3][Hg][Cl]
Reply | yes

---

Target: Retinoic acid receptor RXR-alpha (Homo sapiens) (UniProt P19793)
Sequence (P19793 whole entry, looked up): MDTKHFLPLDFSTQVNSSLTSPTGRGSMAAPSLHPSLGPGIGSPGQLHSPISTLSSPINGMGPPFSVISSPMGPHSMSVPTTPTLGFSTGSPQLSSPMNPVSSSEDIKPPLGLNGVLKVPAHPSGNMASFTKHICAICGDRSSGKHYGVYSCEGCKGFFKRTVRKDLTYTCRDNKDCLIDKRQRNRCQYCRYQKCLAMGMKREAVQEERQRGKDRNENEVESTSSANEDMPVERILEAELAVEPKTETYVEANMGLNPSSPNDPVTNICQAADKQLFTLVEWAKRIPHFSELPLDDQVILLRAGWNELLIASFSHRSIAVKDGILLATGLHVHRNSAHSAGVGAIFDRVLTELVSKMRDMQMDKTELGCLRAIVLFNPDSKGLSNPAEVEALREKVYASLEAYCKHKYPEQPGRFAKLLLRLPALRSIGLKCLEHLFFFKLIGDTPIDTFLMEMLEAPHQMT
Test: qHTS assay for small molecule antagonists of retinoid X receptor alpha signaling (AID 588546);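 further: cells stimulated with 9-cis-retinoic acid as agonist; on the % scale 0 is the no-effect control and ±100 the full control effect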
Conditions: HEK293T RXRa-UAS-bla, beta-lactamase ratio, antagonist mode
Records with an inconclusive call do not appear.
Here, each record is paired with measured max response data.
The reply should contain only the number, in %.

// known answers, use as guide
molecule	max response / %
Nc1ccc([N+](=O)[O-])cc1Cl	-1.45
CC(C)NC(=O)N1CC(=O)N(c2cc(Cl)cc(Cl)c2)C1=O	-6.64
Clc1ccc([C@@]2(Cn3cncn3)C[C@H](Br)CO2)c(Cl)c1	-7.83

Ask | Recorded max response of COc1nc(C)nc(NC(=O)NS(=O)(=O)c2ccccc2Cl)n1 , please.
Reply | -1.72

Ask | Try this molecule too: Cc1cnc(C2=NC(C)(C(C)C)C(=O)N2)c(C(=O)O)c1 (stereo not drawn)
Reply | 9.76

Ask | Try this molecule too: OC(c1ccc(Cl)cc1)(c1cncnc1)c1ccccc1Cl (stereo not drawn)
Reply | -39.6

Ask | Try this molecule too: CCNc1nc(NC(C)C)nc(SC)n1
Reply | -29

Ask | Try this molecule too: O=c1[nH]c2ccccc2c(=O)o1
Reply | -21.4

Ask | Try this molecule too: CCCCC(CC)COC(=O)Cl (stereo not drawn)
Reply | -2.38

Ask | Try this molecule too: C=CC(=O)OCCCCCC(C)C
Reply | -5.23

Ask | Try this molecule too: O=C(NC(=O)c1c(F)cccc1F)Nc1cc(Cl)c(OC(F)(F)C(F)F)c(Cl)c1
Reply | 21.4

Ask | Try this molecule too: CNC(=O)N(C)c1nc2ccccc2s1
Reply | -2.41

Ask | Try this molecule too: CCOP(=O)(SC(C)CC)SC(C)CC (stereo not drawn)
Reply | -13.8
